Recorded values, source ChEMBL document CHEMBL1201862.

Entries and their GI50
system: SK-OV-3; assay: NCI tumour cell line growth inhibition, 48 h
Calls of active or inactive are those of the source. No stated cut-off is given here; in the data, active = GI50 up to about 1.1 µM and inactive = higher.

compound	GI50
CCCCSCC(NC(=O)/C=C/c1c(C)[nH]c(=O)[nH]c1=O)C(=O)OC (stereo unspecified)	45.4 µM (inactive)
CCOC(=O)N1CCc2cc(OC)c(OC)c3c2C1CC3=O (stereo unspecified)	> 100 µM (inactive)
COc1ccc2nc3cc(Cl)ccc3c(NCCCNCc3cc(OC)c(OC)c(OC)c3)c2c1	1.81 µM (inactive)
O=c1cccc2n1C[C@H]1CNC[C@H]2C1	> 100 µM (inactive)
C=C1C(=O)O[C@@H]2/C=C(C)/C=C\[C@@H]3O[C@@]3(C)C[C@@H](O)C12 (stereo partly specified)	54 µM (inactive)
C=CCC1(C)CCCN(Cc2ccccc2)C1=O (stereo unspecified)	> 10 µM (inactive)
O=C(O)C1Cc2c([nH]c3ccccc23)C=N1 (stereo unspecified)	> 100 µM (inactive)
O=C1CCC(=O)c2ccccc2N1	> 100 µM (inactive)
CC1(C)N=C(C2CCCN2C(=O)OCc2ccccc2)OC1=O (stereo unspecified)	> 100 µM (inactive)
CN1C(=O)NC2(O)c3ccccc3C(=O)C12O (stereo unspecified)	> 100 µM (inactive)
CCNC(=O)Cc1nc2c(O)ncnc2n1C1OC(CO)C(O)C1O (stereo unspecified)	> 100 µM (inactive)
COc1ccccc1C1C(C(=O)O)=C(CO)Oc2cc3c(cc21)OCO3 (stereo unspecified)	> 100 µM (inactive)
Cc1cccc2c1Sc1ccccc1C2NC(=O)CN(C)C (stereo unspecified)	> 100 µM (inactive)
Cc1c(Cl)nc(Cl)nc1Cl	3.91 µM (inactive)
C=CCNC1=NC(=O)C(CC(=O)Nc2cccc(Cl)c2)S1 (stereo unspecified)	> 100 µM (inactive)
CC1=C2CC(C)(C)CC(=O)C2(C)CCC1=O (stereo unspecified)	> 100 µM (inactive)
COc1ccc(C(c2cc(OC)c(OC)c(OC)c2)N2C(=O)CCC2C(=O)O)cc1 (stereo unspecified)	60.1 µM (inactive)
COc1cc(C)c2c(=O)c3ccccc3n(C)c2c1	43.1 µM (inactive)
CCC1=CCN(c2cc(C)ccn2)OC1c1ccc(OC)cc1 (stereo unspecified)	48.8 µM (inactive)
O=C1N=C(Nc2ccccc2Cl)N/C1=C\c1ccc(Cl)cc1Cl	> 100 µM (inactive)
O=C1C(c2c(O)[nH]c3ccc([N+](=O)[O-])cc23)=Nc2ccccc21	> 100 µM (inactive)
O=C1/C(=C\c2ccc(F)cc2)CCOc2c1ccc1ccccc21	36.6 µM (inactive)
Cc1ccc(N2C(=O)/C(=C3\Sc4c(nc(C)[nH]c4=O)N3c3ccccc3)SC2=S)cc1	15.8 µM (inactive)
CCOC(=O)c1c(O)cn2c1[nH]c1cccc3cccc2c31	> 100 µM (inactive)
COc1ccc(C(=O)c2[nH]c(Nc3ccc(Cl)cc3)c(C(=S)Nc3ccccc3)c2N)cc1	> 100 µM (inactive)
Cc1oc(N)c(S(=O)(=O)c2cc3ccccc3[n+]([O-])c2N)c1C	> 100 µM (inactive)
CC(C)=CCC/C(C)=C/CC/C(C)=C/CC/C(=C/CC/C(C)=C\CC/C(C)=C/CC/C(C)=C/CC/C(C)=C/Cc1cc(O)ccc1O)CO	10.9 µM (inactive)
C=CC(Br)(CBr)CCC(Cl)C(C)C (stereo unspecified)	4.25 µM (inactive)
CCOC(=O)C1=C(Nc2ccccc2)OC/C1=N\NC(=O)Cc1ccccc1	> 50 µM (inactive)
Cc1ccc(C(=O)N/N=C(\N=N\c2cccc([N+](=O)[O-])c2)c2ccc(N(CCC#N)CCC#N)cc2C)cc1	36.8 µM (inactive)
COC(=O)C12CCC(C(F)(F)C1=O)C2(C)C (stereo unspecified)	> 100 µM (inactive)
Cc1ccccc1NC(=O)C(=O)C1CN(c2ccccc2)N=C1N (stereo unspecified)	> 100 µM (inactive)
CN(CCN1C(=O)c2cccc3cccc(c23)C1=O)CCN1C(=O)c2cccc3cccc(c23)C1=O	4.29 µM (inactive)
COc1ccc2c(c1)[n+]([O-])c(C(=O)C/C(=N/NC(=O)C[N+](C)(C)C)C(=O)Nc1cccc(C)c1C)c(C)[n+]2[O-]	> 100 µM (inactive)
Cc1ccc(S(=O)(=O)NC(=O)Nc2nc(Cl)cc(Cl)n2)cc1	> 100 µM (inactive)
Cc1ccc2c(c1)/C(=N/Nc1ccccc1[N+](=O)[O-])C(=O)N2	4.68 µM (inactive)

* * *

test system: OVCAR-5; assay: NCI tumour cell line growth inhibition, 48 h
Active and inactive are the calls of the source. No stated cut-off is given here; in the data, active = GI50 up to about 1.1 µM and inactive = higher.
In this section we review reported GI50 values for a set of compounds.

compound	GI50
Nc1nc(=S)[nH]c2nc3c(c(-c4ccccc4)c12)CCCC3	> 100 µM (inactive)
CC12CC(c3ccccc3O1)C(C(=O)Nc1nccs1)C(=O)N2 (stereo unspecified)	> 100 µM (inactive)
CC1(C)CC23C4COC(=O)C2CCC1C3CC4=O (stereo unspecified)	32.6 µM (inactive)
Cn1c(=O)c2c(nc(N/N=C3/SCC(=O)N3Cc3ccccc3)n2C)n(C)c1=O	> 100 µM (inactive)
CCOC(=O)C1(C/C=C/CBr)Cc2ccccc2C1=O (stereo unspecified)	3.02 µM (inactive)
CCCCCCCCCCCCCCCCCC[N+](C)(C)Cc1ccc(C[N+](C)(C)CCCCCCCCCCCCCCCCCC)cc1	32.9 µM (inactive)

* * *

Listed molecules paired with reported GI50
tested on: SN12C; experiment: NCI tumour cell line growth inhibition, 48 h
Active and inactive are the calls of the source. No stated cut-off is given here; in the data, active = GI50 up to about 1.1 µM and inactive = higher.

molecule	GI50
NC(=O)CCC(Nc1c2ccccc2nc2ccccc12)C(=O)O (configuration not stated)	> 100 µM (inactive)
CCCC(N)C(=O)c1ccccc1 (configuration not stated)	> 100 µM (inactive)
COc1ccccc1C1C(C(=O)O)=C(CO)Oc2cc3c(cc21)OCO3 (configuration not stated)	> 100 µM (inactive)
COc1ccc(C2C(C#N)=C(S)N(C3OC(CO)C(O)C(O)C3O)C(C)=C2C(C)=O)cc1 (configuration not stated)	> 100 µM (inactive)
CCOC(=O)C1(C/C=C/CBr)Cc2ccccc2C1=O (configuration not stated)	1.99 µM (inactive)
CSc1c(C#N)c(N)nc2c(/N=N\c3ccc(Cl)cc3)c(N)nn12	3.17 µM (inactive)
COc1ccc(NC2=NCCO2)c2ccccc12	> 10 µM (inactive)
CS(=O)(=O)c1ccc(/N=C/C=C/Nc2ccc(S(C)(=O)=O)cc2)cc1	> 100 µM (inactive)
CC(=N\N)/C(C)=N/N=C(C)/C(C)=N/N	> 100 µM (inactive)
N=S(c1ccccc1[N+](=O)[O-])c1ccccc1[N+](=O)[O-]	1.72 µM (inactive)
C/C(CC1C2CCCC1C2)=N\NC(N)=O (configuration not stated)	> 100 µM (inactive)
CN(OC(=O)CC(=O)c1ccccc1)C(=O)Cc1ccccc1	> 100 µM (inactive)
Clc1cc2n[se]nc2cc1Cl	> 100 µM (inactive)
COc1nc(O)c(N)c(NC2OC(CO)C(O)C(O)C2O)n1 (configuration not stated)	> 100 µM (inactive)
Cc1nc(Nc2ccc(Cl)cc2)sc1C(=O)NNC(=S)NN	18.1 µM (inactive)
COc1ccc(NC(=O)CC(=O)n2nc(C)c(/N=N/c3ccccc3C(=O)O)c2C)cc1	> 100 µM (inactive)
C=C(C)C1Cc2c(cc3c(c2O)c(=O)c2ccccc2n3C)O1 (configuration not stated)	2.27 µM (inactive)

* * *

test system: HCC 2998; experiment: NCI tumour cell line growth inhibition, 48 h
Active and inactive are the calls of the source. Cut-off read from the data, not from the text of the source: active = GI50 up to about 1.1 µM and inactive = higher.
Classes used: active, inactive

compound	group label
Cc1ccccc1C1OC1C(=O)c1ccccc1N (stereo unspecified)	inactive
COc1ccc(NC(=O)NNS(=O)(=O)c2ccc(C)cc2)cc1	inactive
COc1ccc(NC2Oc3cc4c(cc3C(c3cccc(OC)c3OC)C2C)OCO4)cc1 (stereo unspecified)	inactive
C/C(CC1C2CCCC1C2)=N\NC(N)=O (stereo unspecified)	inactive
CC1(C)c2ccccc2C(C)(C)C(C(=O)Nc2ccccc2)C1C(=O)O (stereo unspecified)	inactive
CC1C2CC(CC2N)C1(C)C (stereo unspecified)	inactive
O=C1NCc2ccccc2S(=O)(=O)n2cccc21	inactive
C#CCSC(C=C=C)P(=O)(OC(C)C)OC(C)C (stereo unspecified)	inactive
N=S(c1ccccc1[N+](=O)[O-])c1ccccc1[N+](=O)[O-]	inactive
O=C1Nc2cccc(Cl)c2/C1=C\c1cccnc1	inactive
C=CCNC1=NC(=O)C(CC(=O)Nc2cccc(Cl)c2)S1 (stereo unspecified)	inactive
COc1cc(/C=N/n2c(-c3ccccc3)n[nH]c2=O)cc(OC)c1OC	inactive
C=CC(Br)(CBr)CCC(Cl)C(C)C (stereo unspecified)	active
O=Cc1c(Br)[nH]c2ccccc12	inactive
CCOC(=O)CC(c1ccccc1)C(C)(C(=O)OCC)C(=O)OCC (stereo unspecified)	inactive
Oc1ccc(-c2csc(N/N=C3\NC/C(=C/c4ccc5c(c4)OCO5)S3)n2)cc1O	inactive
